Cited source: patent US6352989B1

Recorded melting point for the following compounds
reported-endpoint: melting point

1) CNc1nc(-c2cccc(-c3cnc4ccccc4c3)c2)c2cc(OC)c(OC)cc2n1 [Example 49] | 218 to 220 °C
2) CNc1nc(-c2cccc(NC(=O)c3ccc(Cl)nc3)c2)c2cc(OC)c(OC)cc2n1 [Example 29] | 157 to 159 °C
3) CCOc1cc2nc(NC)nc(-c3cccc(-c4cncc(SC)c4)c3)c2cc1OCC [Example 61] | 105 to 107 °C
4) CNc1nc(-c2cccc(NC(=O)c3cccc(Cl)c3)c2)c2cc(OC)c(OC)cc2n1 [Example 9] | 124 to 126 °C

###

pIC50: −log10 of the molar value.
PDE4D (Homo sapiens) data, read-out pIC50
Sequence (Q08499 303-809 limits assumed): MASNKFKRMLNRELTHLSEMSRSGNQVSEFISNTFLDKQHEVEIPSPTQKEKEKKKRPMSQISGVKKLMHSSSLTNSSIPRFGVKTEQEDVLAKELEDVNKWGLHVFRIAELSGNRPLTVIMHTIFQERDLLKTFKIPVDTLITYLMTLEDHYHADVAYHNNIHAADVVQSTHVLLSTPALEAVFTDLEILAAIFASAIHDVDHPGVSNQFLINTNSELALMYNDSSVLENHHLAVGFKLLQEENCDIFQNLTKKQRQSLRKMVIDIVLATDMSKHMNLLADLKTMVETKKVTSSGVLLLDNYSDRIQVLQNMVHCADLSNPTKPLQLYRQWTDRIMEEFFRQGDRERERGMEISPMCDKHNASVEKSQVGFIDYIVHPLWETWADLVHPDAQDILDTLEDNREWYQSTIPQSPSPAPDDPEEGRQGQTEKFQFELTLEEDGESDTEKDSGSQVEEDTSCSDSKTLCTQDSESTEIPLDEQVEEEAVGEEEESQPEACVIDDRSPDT
reported-endpoint: pIC50

1) CNc1nc(-c2cccc(-c3cnc4ccccc4c3)c2)c2cc(OC)c(OC)cc2n1 | 8.96
2) CNc1nc(-c2cccc(-c3ccc(SC)cc3)c2)c2cc(OC)c(OC)cc2n1 | 8.74
3) CNc1nc(-c2cccc(NC(=O)c3ccc(OC)c(Cl)c3)c2)c2cc(OC)c(OC)cc2n1 | 8.85
4) CNc1nc(-c2cccc(-c3cccc(SC)c3)c2)c2cc(OC)c(OC)cc2n1 | 8.77
5) CNc1nc(-c2cccc(NC(=O)c3ccc(O)cc3)c2)c2cc(OC)c(OC)cc2n1 | 8.66
6) CNc1nc(-c2cccc(N3Cc4ccccc4C3=O)c2)c2cc(OC)c(OC)cc2n1 | 9.14
7) CNc1nc(-c2cccc(-c3cnc4c(C)cccc4c3)c2)c2cc(OC)c(OC)cc2n1 | 9.72
8) CNc1ccc(C(=O)Nc2cccc(-c3nc(NC)nc4cc(OC)c(OC)cc34)c2)cn1 | 8.59
9) CNc1nc(-c2cccc(NC(=O)c3ccc(N4CCCC4)nc3)c2)c2cc(OC)c(OC)cc2n1 | 8.60
10) CCOc1cc2nc(NC)nc(-c3cccc(-c4cncc(SC)c4)c3)c2cc1OCC | 9.22
11) CNc1nc(-c2cccc(-c3ccc([S+](C)[O-])cc3)c2)c2cc(OC)c(OC)cc2n1 (centres unmarked) | 9.20

###

Recorded melting point for the following compounds
reported-endpoint: melting point

1) CNc1nc(-c2cccc(NC(=O)c3ccc(OCc4ccccc4)cc3)c2)c2cc(OC)c(OC)cc2n1 | 110 to 112 °C
2) CNc1nc(-c2cccc(-c3cccnc3)c2)c2cc(OC)c(OC)cc2n1 | 186 to 188 °C
3) CCCN(Cc1ccccc1)c1cccc(-c2nc(NC)nc3cc(OC)c(OC)cc23)c1 | 75 to 77 °C
4) CNc1nc(-c2cccc(N3Cc4ccccc4C3)c2)c2cc(OC)c(OC)cc2n1 | 194 to 196 °C
5) CNc1nc(-c2cccc(N(C)C(=O)c3ccccc3)c2)c2cc(OC)c(OC)cc2n1 | 198 to 200 °C
6) CNc1nc(-c2cccc(NS(=O)(=O)c3ccccc3)c2)c2cc(OC)c(OC)cc2n1 | 230 to 232 °C
7) CNc1nc(-c2cccc(-c3cncc([S+](C)[O-])c3)c2)c2cc(OC)c(OC)cc2n1 (centres unmarked) | 208 to 210 °C
8) CNc1nc(-c2cccc(-c3ccc([S+](C)[O-])cc3)c2)c2cc(OC)c(OC)cc2n1 (centres unmarked) | 153 to 155 °C
9) CNc1nc(-c2cccc(NC(=O)Nc3ccccc3)c2)c2cc(OC)c(OC)cc2n1 | 218 to 220 °C
10) CNc1nc(-c2cncc(-c3ccc(SC)cc3)c2)c2cc(OC)c(OC)cc2n1 | 170 to 172 °C
11) CNc1nc(-c2cccc(-c3cccc([S+](C)[O-])c3)c2)c2cc(OC)c(OC)cc2n1 (centres unmarked) | 163 to 165 °C
12) CNc1nc(-c2cccc(C#Cc3cccnc3)c2)c2cc(OC)c(OC)cc2n1 | 103 to 105 °C
13) CNc1nc(-c2cccc(-c3ccccc3)c2)c2cc(OC)c(OC)cc2n1 | 183 to 185 °C
14) CNc1nc(-c2cccc(C#Cc3ccccc3)c2)c2cc(OC)c(OC)cc2n1 | 102 to 104 °C
15) CNc1nc(-c2cccc(-c3cnc4c(C)cccc4c3)c2)c2cc(OC)c(OC)cc2n1 | 188 to 190 °C
16) CNc1nc(-c2cccc(NC(=O)c3ccc(OC)cc3)c2)c2cc(OC)c(OC)cc2n1 | 219 to 221 °C
17) CNc1nc(-c2ccc(-c3ccccc3)s2)c2cc(OC)c(OC)cc2n1 | 201 to 203 °C
18) CCOc1cc2nc(NC)nc(-c3cccc(-c4cnc5ccccc5c4)c3)c2cc1OCC | 157 to 159 °C
19) CNc1nc(-c2cccc(NC(=O)c3cccc(OC)c3)c2)c2cc(OC)c(OC)cc2n1 | 193 to 195 °C
20) CNc1nc(-c2cccc(-c3cccc(-c4ccccc4)c3)c2)c2cc(OC)c(OC)cc2n1 | 193 to 195 °C
